So I've got a bunch of compounds here, and I need their efficacy values.
- System: HCT116
- test.name: efficacy (fitted maximal change in viability relative to DMSO control); higher = less cytotoxic (negative = loss of viability)
- condition.notes: 48 h
Counter-ions that a name gives are not always drawn.
Give bare numbers, in %.

Below: 5 compounds and their reported efficacy.
compound: CCN(CC)CCOc1ccc(/C(=C(\Cl)c2ccccc2)c2ccccc2)cc1 [Clomifene citrate]
efficacy [%]: -90.7

compound: COc1ccc(Cl)c(Nc2ncnc3cc(OCC4CCN(C)CC4)c(OC)cc23)c1
efficacy [%]: -93.6

compound: CC(C)N1N/C(=C2\C=c3cc(O)ccc3=N2)c2c(N)ncnc21
efficacy [%]: -125

compound: NC/1=N/C(=O)C/2=C(/NCC3CN(CN23)C4=CC=C(C=C4)C(=O)N[C@@H](CCC(O)=O)C(O)=O)N1 (stereo partly specified)
efficacy [%]: -92

compound: CC[C@H](NC1=C2N=C[NH]C2=NC=N1)C/3=N/C4=C(C(=CC=C4)F)C(=O)N3C5=CC=CC=C5
efficacy [%]: -25.3

Count: 6. Required value per item: efficacy.
1. CC\1=C/C=C\C=[N]1[Pt](N)(Cl)Cl
2. CNCc1ccc(-c2[nH]c3cc(F)cc4c3c2CCNC4=O)cc1
3. Cc1cc(O[C@@H](CCC(F)(F)F)c2ccc(C(=O)NCCC(=O)O)cc2)cc(C)c1-c1ccc(C(C)(C)C)cc1
4. CC(=O)O/N=C1\C(=O)N(Cc2cc(Cl)ccc2Cl)c2ccc(Cl)cc21
5. COC12C(COC(N)=O)\C3=C(/N1CC4C2N4C)C(=O)C(=C(N)/C3=O)\C (stereo unspecified)
6. CCN1\C=C(\C(O)=O)C(=O)C2=C1C=C(N3CCNCC3)C(=C2)F

Reply:
1. -50.8
2. -101
3. -115
4. -71.8
5. -81
6. 9.53

For the 7 compounds below, give their efficacy values.
1. CC(O)c1cc(C(=O)N[C@@H](C)Cn2ccc(-c3ccc(C#N)c(Cl)c3)n2)n[nH]1 (stereo partly specified) [Darolutamide (ODM-201)]
2. CCOC(=O)c1c(/C(C#N)=C\N)c2ccc(Cl)c(Cl)c2n1C
3. O=C1Nc2ccccc2/C1=C1\Nc2ccccc2C1=O
4. Nc1nc(Nc2ccc3c(c2)CC[C@@H](N2CCCC2)CC3)nn1-c1cc2c(nn1)-c1ccccc1CCC2
5. O=P(O)(O)C(O)(Cc1cccnc1)P(=O)(O)[O][Na] (stereo unspecified) [Risedronate sodium]
6. COc1cc([C@@H]2c3cc4c(cc3[C@@H](O[C@@H]3O[C@@H]5CO[C@@H](C)O[C@H]5[C@H](O)[C@H]3O)[C@H]3COC(=O)[C@H]23)OCO4)cc(OC)c1O [Etoposide]
7. CCC[C@H](N[C@H]1CCc2cc(F)cc(F)c2C1)C(=O)Nc1cn(C(C)(C)CNCC(C)(C)C)cn1

Reply:
[-38.4, -9.36, -9.8, -108, -16.1, -41.9, -90.3]

Consider the following items and state reported efficacy for each.
1. CC(C)(F)C[C@H](N[C@@H](c1ccc(-c2ccc([S+](C)(=O)[O-])cc2)cc1)C(F)(F)F)C(=O)NC1(C#N)CC1
2. Cn1c2ccccc2c2c3c(c4c5ccccc5n(CCC#N)c4c21)CNC3=O
3. N#Cc1ccc(COC[C@H]2O[C@@H](n3c(NCc4ccc(Cl)c(Cl)c4)nc4c(N)ncnc43)[C@H](O)[C@@H]2O)cc1
4. COc1nccc(-c2c(-c3ccc(F)cc3)ncn2C2CCNCC2)n1
5. Cc1ccc(NC(=O)c2ccc(CN3CCN(C)CC3)cc2)cc1Nc1nc(-c2cccnc2)cs1

Reply:
1: -28.3; 2: -63; 3: -99.6; 4: -39.7; 5: -99.1

Provide the reported efficacy of each entry below, same order.
1. CC1(C)CC(=O)c2c(C(F)(F)F)nn(-c3ccc(C(N)=O)c(NC4CCC(O)CC4)c3)c2C1 (stereo unspecified)
2. OCCn1cc(-c2ccc3c(c2)CC/C3=N\O)c(-c2ccncc2)n1
3. O=C(Nc1ccc(OC(F)(F)Cl)cc1)c1cnc(N2CC[C@@H](O)C2)c(-c2ccn[nH]2)c1

Reply:
-53.8
-55.7
-80.6

Look up efficacy for the entries below, preserving their order.
1. COc1c(C)c2c(c(O)c1C/C=C(\C)CCC(=O)OCCN1CCOCC1)C(=O)OC2 [Mycophenolate mofetil]
2. NNCCc1ccccc1.O=S(=O)(O)O

Reply:
[-80.7, -40.1]

List reported efficacy for each of these compounds:
1. CN(C)Cc1ccc(-c2nc3cccc4c3n2CCNC4=O)cc1
2. C=CC(=O)Nc1ccc2ncnc(Nc3cccc(Br)c3)c2c1
3. N#Cc1ccc(C(c2ccc(C#N)cc2)n2cncn2)cc1

Reply:
1. -65.6
2. -86.8
3. -10.3

====

- System: HCT116
- test.name: efficacy (fitted maximal change in viability relative to DMSO control); higher = less cytotoxic (negative = loss of viability)
- condition.notes: 48 h
Note: every record was labeled by where its efficacy sits among interval 1 (below -70%), interval 2 (-70% to below -50%), interval 3 (-50% or more)

molecule: CNC1CCC(N(Cc2cccc(-c3ccncc3)c2)C(=O)c2sc3ccccc3c2Cl)CC1 (stereo unspecified)
class: interval 1
--
molecule: CN1C(=O)C(Cc2c[nH]c3ccccc23)NC1=S (stereo unspecified)
class: interval 3
--
molecule: Cc1cc(SCc2sc(-c3ccc(C(F)(F)F)cc3)nc2C)ccc1OCC(=O)O
class: interval 3
--
molecule: CCC[S+]([O-])c1ccc2[nH]c(NC(=O)OC)nc2c1 (stereo unspecified) [Albendazole oxide]
class: interval 3
--
molecule: COCCNCCc1cccc(Nc2ncc3c(n2)-c2ccccc2[C@H](c2ccccc2F)C3)c1 [Derazantinib]
class: interval 1
--
molecule: COC(=O)Nc1nc2cc(C(=O)c3ccccc3)ccc2[nH]1
class: interval 2
--
molecule: COc1ccc2[nH]c3c(c2c1)CCN[C@]31CS[C@@H]2c3c(OC(C)=O)c(C)c4c(c3[C@H](COC1=O)N1[C@@H]2[C@H]2c3c(cc(C)c(OC)c3O)C[C@@H]([C@@H]1O)N2C)OCO4
class: interval 1
--
molecule: O=C(Nc1cnccc1Cl)N1CCN(Cc2ccc3c(c2)OC(F)(F)O3)CC1
class: interval 2
--
molecule: O=C(N[C@@H](c1ccccc1)[C@@H]1CCCCN1)c1cccc(C(F)(F)F)c1Cl
class: interval 1
--
molecule: COc1cc(SC)ccc1C(=O)N1CCC(Cc2ccccc2)CC1
class: interval 3

Query: Textbook exercise: identify the category of the molecule given here, C[C@]1(O)CC(C1)C2=NC(=C3[N]2C=CN=C3N)C4=CC5=C(C=C4)C=CC(=N5)C6=CC=CC=C6 (stereo unspecified) , according to its measured value.
Reply: interval 3

Query: Please let me know in which category the item `CC1=C(C)C\2=C(S1)[N]3C(=NN=C3[C@H](CC(N)=O)\N=C2C4=CC=C(Cl)C=C4)C` belongs.
Reply: interval 2

Query: Which class holds `O=C(NCC(=O)N1CCCC1)Nc1ccc2cnccc2c1` ?
Reply: interval 3

Query: Consider `CN1CC[C@H]([C@@H](O)C1)C2=C(O)C=C(O)C3=C2O\C(=C/C3=O)C4=CC=CC=C4Cl` . To which efficacy class does it belong?
Reply: interval 2

Query: Categorize the following entry: `COc1cc(C(=O)NC2CCN(C)CC2)ccc1Nc1ncc2c(n1)N(C1CCCC1)CCC(=O)N2C(C)C`
Reply: interval 1

====

- System: HCT116
- test.name: AC50 cell viability (CellTiter-Glo); higher = less potent
- condition.notes: 48 h
Where a name gives a salt, the structure may show the parent alone.
Could you mark each record fulfilled if its AC50 cell viability falls strictly under 10 µM, and not fulfilled if it equals or exceeds it?

Below are worked cases with known answers.
compound: COc1ccc2cc(-c3[nH]c(-c4ccc([S+](C)[O-])cc4)nc3-c3ccncc3)ccc2c1 (stereo unspecified)
tested.on: HCT116
class: not fulfilled

compound: COc1cc2ncnc(Oc3cccc(NC(=O)Nc4cc(C(C)(C)C(F)(F)F)on4)c3)c2cc1OC
tested.on: HCT116
class: fulfilled

compound: O=[N+]([O-])c1cnc(Sc2nnc(O)n2-c2ccc3c(c2)OCCO3)s1
tested.on: HCT116
class: not fulfilled

compound: CC(C)(C)C[C@H]1N[C@@H](C(=O)N[C@H]2CC[C@H](O)CC2)[C@H](c2cccc(Cl)c2F)[C@@]12C(=O)Nc1cc(Cl)ccc12
tested.on: HCT116
class: fulfilled

compound: O=C(NO)c1cnc(NC2(c3ccccc3)CC2)nc1
tested.on: HCT116
class: fulfilled

Query: hey, is AC50 cell viability for `N#Cc1ccc(-c2c(-c3nnc[nH]3)sc(N3CCOCC3)c2C#N)c(F)c1` lower than 10 µM or not?
Reply: fulfilled

Query: Is it true that AC50 cell viability reported for `COc1cc(C(=O)N2CC[C@@H](O)[C@@H](N)C2)cc2nc(-c3cc4ccccc4n3CC3CC3)n(C)c12` is less than 10 µM?
Reply: not fulfilled

Query: hey, is AC50 cell viability for `Nc1n[n+]([O-])c2ccccc2[n+]1[O-]` lower than 10 µM or not?
Reply: not fulfilled

Query: Say whether its AC50 cell viability is strictly beneath 10 µM. Entry: O=C1Nc2nc(-c3c(O)cccc3OCC3CC3)cc([C@@H]3CCCNC3)c2CO1 [Bay-65-1942 hydrochloride]
Reply: fulfilled

Query: For C[C@H]1CCC/C=C/C2C[C@H](O)C[C@H]2[C@H](O)/C=C/C(=O)O1 (stereo partly specified) , is the recorded AC50 cell viability below the cut-off of 10 µM?
Reply: fulfilled

Where do the numbers come from? From the supplement of paper PMC10290057.
